- ASSAY_TARGET: PD-1/PD-L1 interaction (Homo sapiens, UniProt Q9NZQ7)
- Construct: expressed in transfected cells; host or cells: CHO cells (aAPC-PD-L1) co-cultured with Jurkat cells overexpressing PD-1 and an NFAT-luciferase reporter
- Sequence (Q9NZQ7 19-290): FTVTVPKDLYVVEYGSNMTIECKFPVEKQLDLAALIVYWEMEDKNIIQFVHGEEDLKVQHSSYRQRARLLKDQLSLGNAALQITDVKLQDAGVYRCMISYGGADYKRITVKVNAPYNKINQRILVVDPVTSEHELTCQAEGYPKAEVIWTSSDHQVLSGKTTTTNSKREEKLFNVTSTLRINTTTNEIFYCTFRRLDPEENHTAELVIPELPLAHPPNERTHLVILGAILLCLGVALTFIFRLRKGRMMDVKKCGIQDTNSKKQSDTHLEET
- PROTOCOL_DETAILS: PD-1/PD-L1 NFAT reporter co-culture assay
- Assay type: cell-based
- CONDITION_NOTES: Jurkat PD-1 NFAT-luciferase cells co-cultured with aAPC-PD-L1 CHO cells, 6 hrs at 37° C.; read-out: EC50 NFAT Luciferase
OBSERVABLE: EC50 (nM)

1: COc1nc(-c2cccc(-c3cccc4c3CC[C@@H]4Oc3nc(OC)c(CN4CC[C@H](C(=O)O)C4)cc3Cl)c2Cl)ccc1CNC[C@H]1C[C@H](O)C1 [Example 712]
2: COc1nc(O[C@H]2CCc3c(-c4cccc(-c5ccc(C6=NCCN6)c(OC)n5)c4Cl)cccc32)c(Br)cc1CNC(C)(C)C(=O)O [Example 786]
Ask | Please indicate which entry, 1 or 2 , has the lower recorded EC50 value. Output the label that corresponds to your choice.
Reply | 1
(1: 12 nM, 2: 86 nM)

I: Cc1c(COc2nc(OCc3cc(C#N)cc(C#N)c3)c(CNC[C@@H](O)CC(=O)O)cc2Cl)cccc1-c1cccc(-c2ccc(OCCNCCO)cc2)c1C [Example 472]
II: COc1cc(OCc2cccc(-c3cccc(COc4cc(OC)c(CNC[C@@H](O)CC(=O)O)cc4Cl)c3C)c2C)c(Cl)cc1CNC[C@@H](O)CC(=O)O [Example 214]
III: COc1nc(O[C@H]2CCc3c(-c4cccc(-c5ccc(C6=NCCN6)c(OC)n5)c4Cl)cccc32)c(Br)cc1CN1CC2(C1)CN(C(C)=O)C2 [Example 775]
IV: Cc1c(COc2cc(OCc3cncc(C#N)c3)c(CNC[C@@H](O)CC(=O)O)cc2Cl)cccc1-c1cccc(-c2cnc3c(Cl)cc(CNC[C@@H](O)CC(=O)O)cc3c2)c1C [Example 297]
V: Cc1c(COc2cc(OCc3cncc(C#N)c3)c(CN[C@H]3CC[C@@H](C(=O)O)C3)cc2Cl)cccc1-c1cccc(-c2ccc(OCCNCCO)cc2)c1C [Example 338]
Ask | Exam item: list the entries in increasing order of EC50. Labels, requested order.
Reply | I, III, II, IV, V
(I: 51 nM, III: 84 nM, II: 172 nM, IV: 266 nM, V: 1060 nM)

Measured values drawn from patent US12590062B2 for this set.
